pKd: −log10 of the molar value.
Test system Mer (Homo sapiens, UniProt Q12866), pKd listed for each of the molecules.

Previously resolved entries follow.
>>> measuredvalue("COc1cc2nccc(Oc3ccc(NC(=O)c4nn(-c5ccc(F)cc5C)cc4OCC4CC4)nc3)c2cc1OC")
"> 7.00"
>>> measuredvalue("CCOc1cn(-c2cncc(C(F)(F)F)n2)nc1C(=O)Nc1ccc(Oc2ccnc3cc(OC)c(OC)cc23)cn1")
"> 7.00"
>>> measuredvalue("CCOc1cnn(CCO)c1C(=O)Nc1ccc(Oc2ccnc3cc(OC)c(OC)cc23)cn1")
"6.00 to 7.00"

Let's switch to this molecule now.
Give pKd for this entry on Mer (Homo sapiens, UniProt Q12866): CCOc1cn(-c2cnccc2C(C)(O)CO)nc1C(=O)Nc1ccc(Oc2ccnc3cc(OC)c(OC)cc23)cc1F (stereo not shown) > 7.00

// provenance: patent US10934274B2
